Form field: Selectivity index (one value per entry).
assay_name: Selectivity index is changes in heart rate(cv dose) to the suppression of twitch response (ED95) in male Rhesus monkey
Type: functional, Cercopithecidae

| molecule | Selectivity index |
| --- | --- |
| COc1cc2c(cc1OC)[C@H](c1cc(OC)c(OC)c(OC)c1)[N@@+](C)(CCCOC(=O)/C=C(\F)C(=O)OCCC[N@+]1(C)CCc3cc(OC)c(OC)c(OC)c3[C@H]1Cc1cc(OC)c(OC)c(OC)c1)CC2.[Cl-].[Cl-] | 21 |
| COc1cc2c(cc1OC)[C@H](c1cc(OC)c(OC)c(OC)c1)[N@@+](C)(CCCOC(=O)/C=C(\Cl)C(=O)OCCC[N@+]1(C)CCc3cc(OC)c(OC)cc3[C@H]1Cc1cc(OC)c(OC)c(OC)c1)CC2.[Cl-].[Cl-] (stereo in doubt; 24a/24b) [GANTACURIUM CHLORIDE] | 27 |
| COc1cc2c(cc1OC)[C@H](c1cc(OC)c(OC)c(OC)c1)[N@@+](C)(CCCOC(=O)CCCCCCCC(=O)OCCC[N@+]1(C)CCc3cc(OC)c(OC)cc3[C@H]1Cc1cc(OC)c(OC)c(OC)c1)CC2.[Cl-].[Cl-] | 19 |
| COc1cc2c(cc1OC)C(Cc1cc(OC)c(OC)c(OC)c1)[N@+](C)(CCCOC(=O)/C(Cl)=C/C(=O)OCCC[N@+]1(C)CCc3cc(OC)c(OC)cc3[C@H]1Cc1cc(OC)c(OC)c(OC)c1)CC2.[Cl-].[Cl-] (some centres undefined) | 20 |
